The origin of these recorded values is paper PMC11480844.

B1: H2-Kb / F4 (parent complex)
chain 1: QQQVRQSPQSLTVWEGETAILNCSYEDSTFNYFPWYQQFPGEGPALLISIRSVSDKKEDGRFTIFFNKREKKLSLHITDSQPGDSATYFCAAMSNYNVLYFGSGTKLTVEP
chain 2: ETAVFQTPNYHVTQVGNEVSFNCKQTLGHDTMYWYKQDSKKLLKIMFSYNNKQLIVNETVPRRFSPQSSDKAHLNLRIKSVEPEDSAVYLCASSARQNSPLYFAAGTRLTVT
chain 3: not shown
chain 4: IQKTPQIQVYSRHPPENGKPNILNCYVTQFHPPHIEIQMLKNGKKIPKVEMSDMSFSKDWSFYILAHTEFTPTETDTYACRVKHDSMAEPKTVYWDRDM
chain 5: SIINFEKL

Variants of: B1
Experiment: % of reporter cells activated (NFAT-GFP), raw; also: test concentration or dose not given here
Labelling field: enter Fulfilled if recorded ratio to parent is less than 0.03. Enter Not fulfilled if it equals or exceeds that cut-off.

Previously resolved entries follow.
# mutations, class_name
rows = [
    ("chain 5 N4R", "Fulfilled"),
    ("chain 5 I3T", "Not fulfilled"),
    ("chain 5 N4K", "Fulfilled"),
]

Strictly below 0.03 in ratio to parent? chain 5 S1Q
Not fulfilled

Strictly below 0.03 in ratio to parent? chain 5 I3G
Not fulfilled

Strictly below 0.03 in ratio to parent? chain 5 S1T
Fulfilled
